- systemName: PLK4 (h) (Homo sapiens, UniProt O00444)
- Sequence (O00444 whole entry): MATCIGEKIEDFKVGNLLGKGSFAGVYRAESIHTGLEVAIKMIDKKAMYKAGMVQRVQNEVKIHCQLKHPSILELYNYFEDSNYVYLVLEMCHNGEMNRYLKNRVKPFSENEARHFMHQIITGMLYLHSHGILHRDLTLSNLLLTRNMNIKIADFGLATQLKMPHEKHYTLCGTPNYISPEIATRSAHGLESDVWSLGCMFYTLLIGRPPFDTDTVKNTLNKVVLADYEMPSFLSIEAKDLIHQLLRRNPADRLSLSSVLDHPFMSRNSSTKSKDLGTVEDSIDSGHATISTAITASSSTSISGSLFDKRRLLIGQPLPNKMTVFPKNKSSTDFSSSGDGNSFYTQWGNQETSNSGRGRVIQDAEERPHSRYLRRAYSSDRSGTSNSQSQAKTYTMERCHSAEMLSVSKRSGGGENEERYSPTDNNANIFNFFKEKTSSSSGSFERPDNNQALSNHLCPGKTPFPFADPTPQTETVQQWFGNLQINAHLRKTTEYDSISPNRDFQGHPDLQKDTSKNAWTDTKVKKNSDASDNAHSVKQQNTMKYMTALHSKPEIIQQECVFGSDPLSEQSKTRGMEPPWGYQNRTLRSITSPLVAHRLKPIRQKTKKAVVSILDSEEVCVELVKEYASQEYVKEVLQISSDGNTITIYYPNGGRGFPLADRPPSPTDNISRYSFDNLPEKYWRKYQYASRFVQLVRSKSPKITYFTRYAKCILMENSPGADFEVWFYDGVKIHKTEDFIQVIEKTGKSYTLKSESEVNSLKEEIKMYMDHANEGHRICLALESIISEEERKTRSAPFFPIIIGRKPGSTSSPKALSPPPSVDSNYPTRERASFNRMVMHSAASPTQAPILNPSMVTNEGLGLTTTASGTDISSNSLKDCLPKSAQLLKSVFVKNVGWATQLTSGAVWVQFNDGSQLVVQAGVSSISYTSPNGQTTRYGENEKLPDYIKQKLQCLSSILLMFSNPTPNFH
- assayRemarks: PLK-4 human kinase inhibition, scintillation proximity assay (SPA)
- Assay type: biochemical
- assayConditions: read-out: PLK4 pIC50 (converted)
- Method: In the SPA technology the activity of the kinase of interest is measured using an appropriate biotinylated substrate that is incubated with the aforementioned kinase protein in the presence of (^33P) radiolabeled ATP. (^33P) Phosphorylation of the substrate is subsequently measured through binding of the phosphorylated substrate to streptavidine coated beads that are based on the scintillant poly(vinyl toluene) (PVT-Beads). The scintillation intensity is detected by imaging on Leadseeker. […]
outcomeMeasure: IC50 (µM)

// worked examples, IC50 included
>>> print(df.to_string())
                                   compound  outcomemeasure  valueunits  value
0  O=C1NCCCOc2cccc(c2)-c2ccnc(n2)Nc2ccc(N3CCOCC3)c(c2)CN[C@H]1CO [Compound 89]            IC50          µM  0.525
1  COc1ccc2cc1CNCCNC(=O)CN1CCN(CC1)Cc1cc(ccc1N1CCOCC1)Nc1nccc-2n1 [Compound 126]            IC50          µM  0.813
2  O=C1NCCOc2cccc(c2)-c2ccnc(n2)Nc2ccc(N3CCOCC3)c(c2)CN2CCC1CC2 [Compound 94]            IC50          µM   2.63
3  COc1ccc2cc1CN(C)CCNC(=O)[C@@H]1CCCN1Cc1cc(cc(N3CCOCC3)c1)Nc1nccc-2n1 [Compound 152]            IC50          µM  0.692
4  O=C1NCc2cccc(c2)-c2ccnc(n2)Nc2cc(CNC3CCOCC3)cc(c2)CN2CCC[C@@H]12 [Compound 29]            IC50          µM  0.162

A = O=C1NCCCOc2ccc(cc2)-c2ccnc(n2)Nc2ccc(N3CCOCC3)c(c2)CN2CCC[C@@H]12 [Compound 7]
B = COc1ccc2cc1CN(C)CCNC(=O)[C@H](C)NCc1cc(ccc1N1CCOCC1)Nc1nccc-2n1 [Compound 116]
C = O=C1NCCCc2cc(ccn2)-c2ccnc(n2)Nc2ccc(N3CCOCC3)c(c2)CN2CCCC12 (stereo not drawn) [Compound 48]
Task: Please put the entries in order of rising IC50. Form field (ranking): labels in requested order.
Output: A, C, B

I = COc1cc2cc(c1)Nc1nccc(n1)-c1ccc(cc1)CN(C)CCCNC(=O)CN1CCN(CC1)C2 [Compound 133]
II = CN1CCNC(=O)C2CCN(CC2)Cc2cccc(c2)Nc2nccc(n2)-c2ccc(cc2)C1 [Compound 82]
Task: Choose between I and II : whose measured IC50 value is numerically larger? Give the label under which the chosen entry appears.
Output: II

a = O=C1NCCOc2ccc(cc2)-c2ccnc(n2)Nc2ccc(N3CCOCC3)c(c2)CN2CCC1CC2 [Compound 6]
b = O=C1NCc2cc(ccc2N2CCOCC2)Nc2nccc(n2)-c2cccc(c2)CCCN2CCC[C@@H]12 [Compound 149]
c = COc1ccc2cc1CN1CCN(CC1)CC(=O)N(C)CCN(C)c1ccc(cn1)-c1ccnc(n1)N2 [Compound 14]
d = O=C1CN2CCN(CC2)Cc2cc(ccc2N2CCOCC2)Nc2nccc(n2)-c2cccc(c2)CN1 [Compound 20]
Task: Sequence the entries by IC50, beginning with the highest number. List each label, following the requested order.
Output: d, c, b, a
(d: 5.25 µM, c: 1.35 µM, b: 0.813 µM, a: 0.316 µM)

1 = CN1CCC(NC(=O)c2ccc3cc2CN2CCC[C@H]2C(=O)NCc2cccc(c2)-c2ccnc(n2)N3)CC1 [Compound 47]
2 = C[C@H]1NCc2cc(ccc2N2CCOCC2)Nc2nccc(n2)-c2cccc(c2)OCCCNC1=O [Compound 87]
3 = C[C@@H]1NCCc2cccc(c2)-c2ccnc(n2)Nc2ccc(N3CCOCC3)c(c2)CNC1=O [Compound 100]
Task: Order each entry by recorded IC50, climbing from the minimum. Ranked list of labels, please, in the requested order.
Output: 2, 1, 3

I = CC(C)Nc1cc2cc(c1)Nc1nccc(n1)-c1ccc(cc1)CN(C)CCNC(=O)C1CCN(CC1)C2 [Compound 61]
II = O=C1NCCCc2cc(ccn2)-c2ccnc(n2)Nc2cccc(c2)CN[C@H]1CO [Compound 19]
III = O=C(NC1CCOCC1)c1ccc2cc1CN1CCC[C@H]1C(=O)NCc1cccc(c1)-c1ccnc(n1)N2 [Compound 46]
Task: Put the compounds in ascending order of IC50. Note for the reader: the ranking is given by listing the labels in the order requested.
Output: III, I, II
